System: SIK2
Design: species or system human, MV4-11 + K-562 + COLO205 + SK-N-BE2 + OVCAR-8
conditions: read-out: apparent Kd; compound concentrations:100 nM and 1000 nM (sheet 'Samples'); n = 1
Hi! Just check whether potency estimated from few doses is below 0.6 µM. Below gives true, equal or above gives false.

Inquiry: Check if potency estimated from few doses falls below 0.6 µM for CNS(=O)(=O)c1ccc(N(C)C)c(Nc2ncnc3cc(OC)c(OC)cc23)c1 .
Reply text: false

Inquiry: Dear reviewer, please state whether CC(C)Oc1ccc2c(-c3ccnc(Nc4ccc(N5CCN(C)CC5)cc4)n3)cnn2n1 [GW696155X] has potency estimated from few doses strictly beneath 0.6 µM.
Reply text: false

Inquiry: Strictly below 0.6 µM: is that where potency estimated from few doses of Cl.Cn1c(=O)c(Cc2ccc(F)cc2F)cc2cnc(NC3CCOCC3)nc21 sits?
Reply text: false

Inquiry: Consider O=C(O)C(F)(F)F.O=c1[nH]ccc2nc(N[C@@H]3CCNC3)nc(Nc3cc(Cl)cc(Cl)c3)c12 [GSK2188764A] . Does its potency estimated from few doses lie strictly below 0.6 µM?
Reply text: false

Inquiry: Lab note: potency estimated from few doses threshold 0.6 µM. Does this compound come in strictly under it? CCN(CC)CCOc1ccc(Nc2ncc3cc(-c4c(Cl)cccc4Cl)c(=O)n(C)c3n2)cc1
Reply text: true

Inquiry: Find out if reported potency estimated from few doses for COc1cccc(-c2c[nH]c3c(N/N=C/c4ccncc4)ncnc23)c1 [GW814408X] is less than 0.6 µM
Reply text: false

Inquiry: State whether 0.6 µM exceeds potency estimated from few doses recorded for CN1C[C@@H]2Cn3c(c(C4=C(c5cn(C)c6ccccc56)C(=O)NC4=O)c4ccccc43)C[C@H]2C1.Cl .
Reply text: true

Inquiry: Take the compound O=C1NC(=O)C(N2CCc3ccccc32)=C1c1ccccc1Cl and say whether its potency estimated from few doses is less than 0.6 µM.
Reply text: true

Inquiry: Could you please tell me whether potency estimated from few doses recorded for Cl.Cl.NCC(C(=O)Nc1cc(Br)c(-c2ccnc3[nH]ccc23)s1)c1ccccc1.NCC(C(=O)Nc1cc(Br)c(-c2ccnc3[nH]ccc23)s1)c1ccccc1 (stereo not drawn) [GSK1269851A] is less than 0.6 µM?
Reply text: false

Inquiry: Dear reviewer, please state whether COc1cc[nH]c1/C=C1\C(=O)Nc2ccc(F)c(C#C[C@@H](O)[C@@H](N)[C@@H](C)O)c21 has potency estimated from few doses strictly beneath 0.6 µM.
Reply text: false

Inquiry: Is the reported potency estimated from few doses for Cn1c(=O)c(-c2ccccc2Cl)cc2cnc(NC3CCOCC3)nc21 strictly below 0.6 µM?
Reply text: false

----------
Tested on: GSK3B;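 also: competition pulldown with Kinobeads ε in cell lysates, inhibitor preincubated 45 min at 4 °C, bound kinases quantified by LC–MS/MS against DMSO control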
Parameters: species or system human, MV4-11 + K-562 + COLO205 + SK-N-BE2 + OVCAR-8
conditions: compound concentrations:0.3nM, 1nM, 3nM, 10nM, 30nM, 100nM, 300nM, 1000nM,R2:0.96555674920545798,slope:0.96794765422259599,EC50 Standard Error, by the legend:Standard error of the EC50 estimation as provided by the drc package.
assay metric: pEC50
pEC50 here is simply -log10 of the concentration when that concentration is written in mol/L.

Inquiry: // query pEC50 value for entry CCn1c(-c2nonc2N)nc2c(C#CC(C)(C)O)nc(OCCNC)cc21.Cl [GSK949675A]
Reply text: 6.49
